# Measured on: D3R (Homo sapiens, UniProt P35462)
# Sequence (P35462 whole entry): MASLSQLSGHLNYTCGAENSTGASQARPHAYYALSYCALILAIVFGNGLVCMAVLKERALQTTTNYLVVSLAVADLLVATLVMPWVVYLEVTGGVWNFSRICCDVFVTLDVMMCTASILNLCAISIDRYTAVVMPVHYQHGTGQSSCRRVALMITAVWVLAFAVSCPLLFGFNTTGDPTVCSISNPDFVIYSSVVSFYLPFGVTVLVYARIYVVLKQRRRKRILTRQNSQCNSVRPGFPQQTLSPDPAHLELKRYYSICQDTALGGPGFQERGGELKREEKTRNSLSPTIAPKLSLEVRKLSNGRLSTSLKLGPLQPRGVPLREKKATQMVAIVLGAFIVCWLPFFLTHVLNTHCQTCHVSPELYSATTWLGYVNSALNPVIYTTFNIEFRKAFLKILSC
# Test summary: BRET1-based GoA activation assay, D3R
# Assay type: cell-based
# Applied conditions: GoA BRET, HEK293T
Value kind: efficacy type at D3R (in words)

* COc1ccccc1N1CCN(CCCCNC(=O)c2cc3ccccc3[nH]2)CC1 | weak partial agonism
* O=C(NCCCCN1CCN(c2cccc(Cl)c2Cl)CC1)c1cc2ccccc2[nH]1 | weak partial agonism

* * *

# Measured on: D3R (Homo sapiens, UniProt P35462)
# Test summary: BRET1-based GoA activation assay, D3R
# Type: cell-based
# Applied conditions: HEK293T, dose-response 100 pM to 100 µM
Value kind: Emax in the Go BRET assay, D3R

Known Emax in the Go BRET assay, D3R results, listed for orientation:
* CCCN1CCN(c2cccc(Cl)c2Cl)CC1 | 17.53 % of the Emax of dopamine
* CCCCN1CCN(c2ccccc2OC)CC1 | 9.40 % of the Emax of dopamine
* COc1ccccc1N1CCNCC1 | 6.27 % of the Emax of dopamine
* COc1ccccc1N1CCN(C)CC1 | 7.11 % of the Emax of dopamine
* CN1CCN(c2cccc(Cl)c2Cl)CC1 | 37.53 % of the Emax of dopamine
* Clc1cccc(N2CCNCC2)c1Cl | 57.27 % of the Emax of dopamine
* CCCCNC(=O)c1cc2ccccc2[nH]1 [Compound 18, N-Butyl-1H-indole-2-carboxamide] | −0.65 % of the Emax of dopamine
* OCCN1CCN(c2cccc(Cl)c2Cl)CC1 | 21.08 % of the Emax of dopamine

Give measured Emax in the Go BRET assay, D3R for every item shown.
1. CCCCN1CCN(c2cccc(Cl)c2Cl)CC1
2. CCC(=O)NCCCCN1CCN(c2cccc(Cl)c2Cl)CC1
3. O=C(NCCCCN1CCN(c2cccc(Cl)c2Cl)CC1)c1cc2ccccc2[nH]1
4. CCN1CCCC1CNC(=O)c1cc(S(N)(=O)=O)ccc1OC (centres unmarked) [Compound 7, sulpiride, reference compound]

1. 14.13 % of the Emax of dopamine
2. 22.32 % of the Emax of dopamine
3. 16.00 % of the Emax of dopamine
4. −6.83 % of the Emax of dopamine

Record Emax in the Go BRET assay, D3R per entry; entries follow.
1. COc1ccccc1N1CCN(CCCCNC(=O)c2cc3ccccc3[nH]2)CC1
2. CCC(=O)NCCCCN1CCN(c2ccccc2OC)CC1

8.38 % of the Emax of dopamine
7.37 % of the Emax of dopamine

* * *

# Measured on: UniProtKB P35462
# Test summary: BRET1-based GoA activation assay, D3R
# Assay type: cell-based
# Applied conditions: GoA BRET, HEK293T
Value kind: efficacy type at D3R (in words)

* CCN1CCCC1CNC(=O)c1cc(S(N)(=O)=O)ccc1OC (stereo not shown) [Compound 7, sulpiride, reference compound] | inverse agonist
* CCc1cc(Cl)c(OC)c(C(=O)NC[C@@H]2CCCN2CC)c1O [Compound 3, eticlopride, reference compound] | inverse agonist

* * *

# Measured on: D2R (Homo sapiens, UniProt P14416)
# Sequence (P14416 1-414 isoform P14416-2): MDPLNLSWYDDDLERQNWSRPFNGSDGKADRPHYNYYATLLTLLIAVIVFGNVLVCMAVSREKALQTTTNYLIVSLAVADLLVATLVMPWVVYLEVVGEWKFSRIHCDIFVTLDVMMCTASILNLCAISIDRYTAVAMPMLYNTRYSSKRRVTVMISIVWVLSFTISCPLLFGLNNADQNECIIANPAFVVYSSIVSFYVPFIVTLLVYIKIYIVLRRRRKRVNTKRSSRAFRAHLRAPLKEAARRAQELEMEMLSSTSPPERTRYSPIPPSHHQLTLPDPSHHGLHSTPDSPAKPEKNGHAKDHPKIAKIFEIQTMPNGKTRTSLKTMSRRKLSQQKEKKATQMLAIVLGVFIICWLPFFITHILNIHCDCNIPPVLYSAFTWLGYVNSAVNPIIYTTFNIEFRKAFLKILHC
# Test summary: BRET1-based GoA activation assay, D2R
# Assay type: cell-based
# Applied conditions: GoA BRET, HEK293T
Value kind: efficacy type at D2R (in words)

* COc1ccccc1N1CCN(CCCCNC(=O)c2cc3ccccc3[nH]2)CC1 [Compound 5] | weak partial agonism
* O=C(NCCCCN1CCN(c2cccc(Cl)c2Cl)CC1)c1cc2ccccc2[nH]1 [Compound 4] | weak partial agonism

Attribution: paper PMC3415572
